I'd be grateful if you could share measured self-cleavage for these entries.
B1: OR4K15 (parent)
chain: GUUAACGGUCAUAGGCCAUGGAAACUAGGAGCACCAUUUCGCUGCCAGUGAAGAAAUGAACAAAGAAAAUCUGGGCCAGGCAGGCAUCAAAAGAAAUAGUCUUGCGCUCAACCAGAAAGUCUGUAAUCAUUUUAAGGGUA

Variants of: B1
PROCEDURE SUMMARY: self-cleavage, relative activity (ratio to wild type); higher = more cleavage; in vitro, sequencing; the parent is a self-cleaving ribozyme
Answers are plain numbers.

VARIANT IDENTIFIER: C16G G83A
self-cleavage: 1.21

VARIANT IDENTIFIER: U37C C101U
self-cleavage: 0.78

VARIANT IDENTIFIER: C16A A55G
self-cleavage: 0.37

VARIANT IDENTIFIER: A33G U133C
self-cleavage: 0.88

Give measured self-cleavage for every item shown.
1. G28A A110G
2. A92G U130C
3. A98G C109A

1: 0.17; 2: 0.3; 3: 0.03

Give measured self-cleavage for every item shown.
1. A110G A129U
2. G79U A96U
3. A24U A110G
4. U122C U133A
5. A36G A90G
6. U100C U127G

[0.08, 0.13, 0.13, 0.52, 1.54, 2.43]
